Test: Blood-to-plasma concentration ratio
Format: in vitro ADME
Conditions: rat, fresh blood
Metric: blood plasma ratio at 1 μM

| Compound | Measured number |
| --- | --- |
| C=CC(=O)N[C@H]1CCC[C@H]1NC(=O)c1sc2nccc3c2c1NC(=O)N3c1cnc(CC(C)C)cc1C (atropisomer, axis not shown) | 1.37 |

====

Assay: Phase 1 first-in-human study, plasma pharmacokinetics
Assay type: in vivo
Details: both sexes, human, urine and plasma; 200 mg QD oral solution, fed, Day 1

| Compound | CL renal (mL/min) |
| --- | --- |
| C=CC(=O)N[C@H]1CCC[C@H]1NC(=O)c1sc2nccc3c2c1NC(=O)N3c1cnc(CC(C)C)cc1C (atropisomer, axis not shown) | 3.1 |

====

Assay: Preclinical PK, oral and IV
Assay type: in vivo, rat
Conditions: rat, in vivo, po, 5 mg/kg, 5 mg/kg crystalline suspension PO (0.5% HPMC)

| Compound | Tmax, h |
| --- | --- |
| C=CC(=O)N[C@H]1CCC[C@H]1NC(=O)c1sc2nccc3c2c1NC(=O)N3c1cnc(CC(C)C)cc1C (atropisomer, axis not shown) | 1.7 |

====

Assay: Phase 1 first-in-human study, plasma pharmacokinetics
Format: in vivo
Settings: male, human, plasma, po, 105 mg, single 105 mg (3 × 35 mg) oral capsule, male fasted; read-out: t1/2, λz (converted)

| Molecule | half-life, min |
| --- | --- |
| C=CC(=O)N[C@H]1CCC[C@H]1NC(=O)c1sc2nccc3c2c1NC(=O)N3c1cnc(CC(C)C)cc1C (atropisomer, axis not shown) [compound of Formula (III)] | 852 |

====

Assay: Phase 1 first-in-human study, plasma pharmacokinetics
Assay type: in vivo
Settings: female, human, plasma, po, 36 mg, single 36 mg oral solution, female fasted; read-out: t1/2, λz (converted)
Metric: half-life (min)

| Compound | Metric | Measurement units | Measured number |
| --- | --- | --- | --- |
| C=CC(=O)N[C@H]1CCC[C@H]1NC(=O)c1sc2nccc3c2c1NC(=O)N3c1cnc(CC(C)C)cc1C (atropisomer, axis not shown) | half-life | min | 114 |

====

Test system: IL-10 secretion, ABC-DLBCL OCI-LY-10 cells
Assay: IL-10 secretion by OCI-LY-10 cells (MesoScale)
Format: cell-based
Details: Homo sapiens, OCI-Ly10; 6 independent experiments; read-out: IC50, IL-10 secretion (mean±SEM)

| Molecule | IC50 |
| --- | --- |
| C=CC(=O)N[C@H]1CCC[C@H]1NC(=O)c1sc2nccc3c2c1NC(=O)N3c1cnc(CC(C)C)cc1C (atropisomer, axis not shown) | 18 nM |

====

Assay: Phase 1 first-in-human study, plasma pharmacokinetics
Format: in vivo
Settings: male, human, plasma, po, 100 mg, single 100 mg oral solution, male fasted; read-out: tmax, median (min-max)
Metric: Tmax (min)

| Compound | Metric | Measurement units | Measured number |
| --- | --- | --- | --- |
| C=CC(=O)N[C@H]1CCC[C@H]1NC(=O)c1sc2nccc3c2c1NC(=O)N3c1cnc(CC(C)C)cc1C (atropisomer, axis not shown) | Tmax | min | 30 |

====

Assay: Metabolic stability in liver microsomes
Format: in vitro ADME, dog
Conditions: dog, liver microsomes
Metric: microsomal CLint (µL/min/mg)

| Compound | Measured number |
| --- | --- |
| C=CC(=O)N[C@H]1CCC[C@H]1NC(=O)c1sc2nccc3c2c1NC(=O)N3c1cnc(CC(C)C)cc1C (atropisomer, axis not shown) | 40.6 |
